Data origin: ChEMBL document CHEMBL5705889

Assay: Drug concentration in mouse plasma at 1 mg/kg, iv administered as single dose and measured after 0.25 hrs
Format: ADME, organism-based
endpoint label: concentration at 0.25 h (ng/mL)
Give the value in ng/mL but do not write ng/mL after it.

stdin: Name the reported concentration at 0.25 h value associated with the compound `C=CC(=O)Nc1cccc(Oc2nc(Nc3ccc(N4CCN(C)CC4)cc3OC)ncc2Cl)c1`
stdout: 627

* * *

Test: Tmax in mouse at 10 mg/kg, po administered as single dose
Type: ADME, organism-based
Details: in vivo
endpoint label: Tmax (min)
Give the value in min but do not write min after it.

stdin: Name the reported Tmax value associated with the compound `C=CC(=O)Nc1cccc(Oc2nc(Nc3ccc(N4CCN(C)CC4)cc3OC)ncc2Cl)c1`
stdout: 15

* * *

Test: Drug concentration in mouse plasma at 10 mg/kg, po administered as single dose and measured after 4 hrs
Format: ADME, organism-based
endpoint label: concentration at 4 h (ng/mL)
Give the value in ng/mL but do not write ng/mL after it.

stdin: Name the reported concentration at 4 h value associated with the molecule `C=CC(=O)Nc1cccc(Oc2nc(Nc3ccc(N4CCN(C)CC4)cc3OC)ncc2Cl)c1`
stdout: 214
